System: human airway epithelial cells (HAECs)
method: Agilent miRNA chips, miRNA expression at four stages of differentiation of HAECs
stated-conditions: stage FC; Table VI
Cut-off 9 log2 on Level of intensity of expression in log2 measured with the Agilent chips, FC: below means 1, at or above means -1.

>  <substance>
hsa-miR-574-3p: human miRNA, SEQ ID No. 48 (CACGCUCAUGCACACACCCACA; expressed or natural sequence; listed as Homo sapiens)

>  <class-name>
1

$$$$
>  <substance>
hsa-miR-200b: human miRNA, SEQ ID No. 17 (UAAUACUGCCUGGUAAUGAUGA; expressed or natural sequence; listed as Homo sapiens)

>  <class-name>
-1

$$$$
>  <substance>
hsa-miR-181a: human miRNA, SEQ ID No. 12 (AACAUUCAACGCUGUCGGUGAGU; expressed or natural sequence; listed as Homo sapiens)

>  <class-name>
1

$$$$
>  <substance>
hsa-miR-939: human miRNA, SEQ ID No. 50 (UGGGGAGCUGAGGCUCUGGGGGUG; expressed or natural sequence; listed as Homo sapiens)

>  <class-name>
1

$$$$
>  <substance>
hsa-miR-203: human miRNA, SEQ ID No. 19 (GUGAAAUGUUUAGGACCACUAG; expressed or natural sequence; listed as Homo sapiens)

>  <class-name>
-1

$$$$
>  <substance>
hsa-miR-200a: human miRNA, SEQ ID No. 16 (UAACACUGUCUGGUAACGAUGU; expressed or natural sequence; listed as Homo sapiens)

>  <class-name>
-1

$$$$
>  <substance>
hsa-miR-30c: human miRNA, SEQ ID No. 34 (UGUAAACAUCCUACACUCUCAGC; expressed or natural sequence; listed as Homo sapiens)

>  <class-name>
-1

$$$$
>  <substance>
hsa-miR-30b: human miRNA, SEQ ID No. 33 (UGUAAACAUCCUACACUCAGCU; expressed or natural sequence; listed as Homo sapiens)

>  <class-name>
-1

$$$$
>  <substance>
hsa-miR-27b: human miRNA, SEQ ID No. 30 (UUCACAGUGGCUAAGUUCUGC; expressed or natural sequence; listed as Homo sapiens)

>  <class-name>
-1

$$$$
>  <substance>
hsa-miR-29a: human miRNA, SEQ ID No. 31 (UAGCACCAUCUGAAAUCGGUUA; expressed or natural sequence; listed as Homo sapiens)

>  <class-name>
-1

$$$$
>  <substance>
hsa-miR-151-5p: human miRNA, SEQ ID No. 8 (UCGAGGAGCUCACAGUCUAGU; expressed or natural sequence; listed as Homo sapiens)

>  <class-name>
1

$$$$
>  <substance>
hsa-miR-449a: human miRNA, SEQ ID No. 46 (UGGCAGUGUAUUGUUAGCUGGU; expressed or natural sequence; listed as Homo sapiens)

>  <class-name>
-1

$$$$
>  <substance>
hsa-miR-191: human miRNA, SEQ ID No. 13 (CAACGGAAUCCCAAAAGCAGCUG; expressed or natural sequence; listed as Homo sapiens)

>  <class-name>
1

$$$$
>  <substance>
hsa-miR-205: human miRNA, SEQ ID No. 20 (UCCUUCAUUCCACCGGAGUCUG; expressed or natural sequence; listed as Homo sapiens)

>  <class-name>
-1

$$$$
>  <substance>
hsa-miR-23b: human miRNA, SEQ ID No. 26 (AUCACAUUGCCAGGGAUUACC; expressed or natural sequence; listed as Homo sapiens)

>  <class-name>
-1

$$$$
>  <substance>
hsa-miR-193b: human miRNA, SEQ ID No. 14 (AACUGGCCCUCAAAGUCCCGCU; expressed or natural sequence; listed as Homo sapiens)

>  <class-name>
1

$$$$
>  <substance>
hsa-let-7g: human miRNA, SEQ ID No. 162 (UGAGGUAGUAGUUUGUACAGUU; expressed or natural sequence; listed as Homo sapiens)

>  <class-name>
-1

$$$$
>  <substance>
hsa-miR-224: human miRNA, SEQ ID No. 24 (CAAGUCACUAGUGGUUCCGUU; expressed or natural sequence; listed as Homo sapiens)

>  <class-name>
1

$$$$
>  <substance>
hsa-miR-378: human miRNA, SEQ ID No. 43 (ACUGGACUUGGAGUCAGAAGG; expressed or natural sequence; listed as Homo sapiens)

>  <class-name>
1

$$$$
>  <substance>
hsa-miR-16: human miRNA, SEQ ID No. 10 (UAGCAGCACGUAAAUAUUGGCG; expressed or natural sequence; listed as Homo sapiens)

>  <class-name>
-1

$$$$

* * *

Test system: human airway epithelial cells (HAECs)
method: High-throughput sequencing (HTS) of miRNAs at four stages of differentiation of HAECs
stated-conditions: stage WD; Table VI
Cut-off 10 log2 on Level of intensity of expression in log2 measured by high-throughput sequencing, WD: below means true (1), at or above means false (0).

>  <substance>
hsa-miR-17: human miRNA, SEQ ID No. 11 (CAAAGUGCUUACAGUGCAGGUAG; expressed or natural sequence; listed as Homo sapiens)

>  <target-system>
human airway epithelial cells (HAECs)

>  <class-name>
false (0)

$$$$
>  <substance>
hsa-let-7e: human miRNA, SEQ ID No. 160 (UGAGGUAGGAGGUUGUAUAGUU; expressed or natural sequence; listed as Homo sapiens)

>  <target-system>
human airway epithelial cells (HAECs)

>  <class-name>
true (1)

$$$$
>  <substance>
hsa-miR-130a: human miRNA, SEQ ID No. 4 (CAGUGCAAUGUUAAAAGGGCAU; expressed or natural sequence; listed as Homo sapiens)

>  <target-system>
human airway epithelial cells (HAECs)

>  <class-name>
false (0)

$$$$
>  <substance>
hsa-miR-26a: human miRNA, SEQ ID No. 28 (UUCAAGUAAUCCAGGAUAGGCU; expressed or natural sequence; listed as Homo sapiens)

>  <target-system>
human airway epithelial cells (HAECs)

>  <class-name>
true (1)

$$$$
>  <substance>
hsa-miR-193b: human miRNA, SEQ ID No. 14 (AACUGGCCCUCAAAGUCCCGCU; expressed or natural sequence; listed as Homo sapiens)

>  <target-system>
human airway epithelial cells (HAECs)

>  <class-name>
false (0)

$$$$
>  <substance>
hsa-let-7g: human miRNA, SEQ ID No. 162 (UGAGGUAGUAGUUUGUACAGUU; expressed or natural sequence; listed as Homo sapiens)

>  <target-system>
human airway epithelial cells (HAECs)

>  <class-name>
false (0)

$$$$
>  <substance>
hsa-miR-34a: human miRNA, SEQ ID No. 38 (UGGCAGUGUCUUAGCUGGUUGU; expressed or natural sequence; listed as Homo sapiens)

>  <target-system>
human airway epithelial cells (HAECs)

>  <class-name>
false (0)

$$$$
>  <substance>
hsa-miR-425: human miRNA, SEQ ID No. 44 (AAUGACACGAUCACUCCCGUUGA; expressed or natural sequence; listed as Homo sapiens)

>  <target-system>
human airway epithelial cells (HAECs)

>  <class-name>
false (0)

$$$$
>  <substance>
hsa-miR-30d: human miRNA, SEQ ID No. 35 (UGUAAACAUCCCCGACUGGAAG; expressed or natural sequence; listed as Homo sapiens)

>  <target-system>
human airway epithelial cells (HAECs)

>  <class-name>
false (0)

$$$$
>  <substance>
hsa-miR-30c: human miRNA, SEQ ID No. 34 (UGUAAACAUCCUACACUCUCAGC; expressed or natural sequence; listed as Homo sapiens)

>  <target-system>
human airway epithelial cells (HAECs)

>  <class-name>
true (1)

$$$$
>  <substance>
hsa-miR-449a: human miRNA, SEQ ID No. 46 (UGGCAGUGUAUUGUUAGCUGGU; expressed or natural sequence; listed as Homo sapiens)

>  <target-system>
human airway epithelial cells (HAECs)

>  <class-name>
false (0)

$$$$

* * *

Listed here: items and their measured Level of intensity of expression in log2 measured by high-throughput sequencing, WD.
Test system: human airway epithelial cells (HAECs)
method: High-throughput sequencing (HTS) of miRNAs at four stages of differentiation of HAECs
stated-conditions: stage WD; Table VI
readout-kind: Level of intensity of expression in log2 measured by high-throughput sequencing, WD (log2)

>  <substance>
hsa-miR-205: human miRNA, SEQ ID No. 20 (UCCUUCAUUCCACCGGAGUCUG; expressed or natural sequence; listed as Homo sapiens)

>  <endpoint-value>
14.55

$$$$
>  <substance>
hsa-miR-365: human miRNA, SEQ ID No. 41 (UAAUGCCCCUAAAAAUCCUUAU; expressed or natural sequence; listed as Homo sapiens)

>  <endpoint-value>
0.01

$$$$
>  <substance>
hsa-miR-29a: human miRNA, SEQ ID No. 31 (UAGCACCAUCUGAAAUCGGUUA; expressed or natural sequence; listed as Homo sapiens)

>  <endpoint-value>
14.81

$$$$
>  <substance>
hsa-miR-30b: human miRNA, SEQ ID No. 33 (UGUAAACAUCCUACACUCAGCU; expressed or natural sequence; listed as Homo sapiens)

>  <endpoint-value>
9.74

$$$$
>  <substance>
hsa-miR-29c: human miRNA, SEQ ID No. 32 (UAGCACCAUUUGAAAUCGGUUA; expressed or natural sequence; listed as Homo sapiens)

>  <endpoint-value>
14.53

$$$$
>  <substance>
hsa-miR-191: human miRNA, SEQ ID No. 13 (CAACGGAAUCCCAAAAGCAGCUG; expressed or natural sequence; listed as Homo sapiens)

>  <endpoint-value>
16.82

$$$$
>  <substance>
hsa-miR-574-3p: human miRNA, SEQ ID No. 48 (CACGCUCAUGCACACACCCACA; expressed or natural sequence; listed as Homo sapiens)

>  <endpoint-value>
14.56

$$$$
>  <substance>
hsa-miR-96: human miRNA, SEQ ID No. 51 (UUUGGCACUAGCACAUUUUUGCU; expressed or natural sequence; listed as Homo sapiens)

>  <endpoint-value>
5.43

$$$$
>  <substance>
hsa-miR-99a: human miRNA, SEQ ID No. 52 (AACCCGUAGAUCCGAUCUUGUG; expressed or natural sequence; listed as Homo sapiens)

>  <endpoint-value>
12.65

$$$$
>  <substance>
hsa-miR-25: human miRNA, SEQ ID No. 27 (CAUUGCACUUGUCUCGGUCUGA; expressed or natural sequence; listed as Homo sapiens)

>  <endpoint-value>
9.35

$$$$
>  <substance>
hsa-let-7c: human miRNA, SEQ ID No. 159 (UGAGGUAGUAGGUUGUAUGGUU; expressed or natural sequence; listed as Homo sapiens)

>  <endpoint-value>
7.86

$$$$
>  <substance>
hsa-miR-181a: human miRNA, SEQ ID No. 12 (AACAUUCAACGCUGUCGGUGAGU; expressed or natural sequence; listed as Homo sapiens)

>  <endpoint-value>
0.01

$$$$
>  <substance>
hsa-miR-106b: human miRNA, SEQ ID No. 2 (UAAAGUGCUGACAGUGCAGAU; expressed or natural sequence; listed as Homo sapiens)

>  <endpoint-value>
5.39

$$$$
>  <substance>
hsa-miR-22: human miRNA, SEQ ID No. 23 (AAGCUGCCAGUUGAAGAACUGU; expressed or natural sequence; listed as Homo sapiens)

>  <endpoint-value>
9.29

$$$$
>  <substance>
hsa-miR-92b: human miRNA, SEQ ID No. 49 (UAUUGCACUCGUCCCGGCCUCC; expressed or natural sequence; listed as Homo sapiens)

>  <endpoint-value>
13.42

$$$$
>  <substance>
hsa-miR-23b: human miRNA, SEQ ID No. 26 (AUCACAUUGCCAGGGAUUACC; expressed or natural sequence; listed as Homo sapiens)

>  <endpoint-value>
15.35

$$$$
>  <substance>
hsa-miR-27b: human miRNA, SEQ ID No. 30 (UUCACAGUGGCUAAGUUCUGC; expressed or natural sequence; listed as Homo sapiens)

>  <endpoint-value>
6.81

$$$$
>  <substance>
hsa-miR-203: human miRNA, SEQ ID No. 19 (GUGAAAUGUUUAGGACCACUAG; expressed or natural sequence; listed as Homo sapiens)

>  <endpoint-value>
14.57

$$$$
>  <substance>
hsa-miR-224: human miRNA, SEQ ID No. 24 (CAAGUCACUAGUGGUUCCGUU; expressed or natural sequence; listed as Homo sapiens)

>  <endpoint-value>
11.22

$$$$
>  <substance>
hsa-miR-100: human miRNA, SEQ ID No. 1 (AACCCGUAGAUCCGAACUUGUG; expressed or natural sequence; listed as Homo sapiens)

>  <endpoint-value>
9.00

$$$$
>  <substance>
hsa-miR-34c-5p: human miRNA, SEQ ID No. 40 (AGGCAGUGUAGUUAGCUGAUUGC; expressed or natural sequence; listed as Homo sapiens)

>  <endpoint-value>
14.29

$$$$
